protocol: yeast display, Sf9 membrane polyspecificity reagent, FACS + sequencing; frameworks hold sequencing errors
outcomeMeasure: polyreactivity (PSR sort gate)

Example sequences with recorded polyreactivity (PSR sort gate):
QVQLVESGGGLVQAGGSLRLSCAPSGSIFDYYVRGWSRQAPGKERELVAAISWSGASTYYADSVKGRFTISRDNAKNTVYLQITSLKPEDTAVYYCAADYGVNTLIDYDYWGQGTQVTVSS : low polyreactivity
QVQLEESGGGLVQAGGSLRLSCSAYGFTFSRYDMGWYRQAPGKERELVAAISWSGGSTYYADSVKGRFTISRDNAKNSVYLQMNSLKPEDTAVYYCAKPGWSVTGESWGQGTQVTVSA : high polyreactivity
QVQLVESGGGLVQAGGSLRISCAASGTTFPYNGMGWYRQAPGKERELVASISWSGASTYYADSVKGRFTISRDNAKNTVYLQMNSLKPEDTAVYYCAADPGYYSWGSSQDDYWGQGTQVTVSS : low polyreactivity
QVQLVESGGGLVQAGGSLRLSCAASGRTFYVYAMGWYRQAPGKERELVAAISADGGRTYYADSVKGRFTISRDNAKNTVYLQMNSLKPEDTAVYYCAAWRHTLGDYWGQGTQVNVSS : high polyreactivity
QVQLVESGGGLVQAGGSLRLSCAASGSTFPNYAMGWYRQAPGKERELVASISVTTGSTYYADSVKGRFTISRDYAKNTVYLQMNSLKPEDTAVYYCAKRTSSRKFRGAYNYWGQGTQVTVST : high polyreactivity

So what's the measured polyreactivity (PSR sort gate) for this one? QVQLVESGGGLVQAGGSLRLSCAASGIIFARYAMGWYRQAPGKERELVAAINWSGGDTYYADSVKGRFTISRDNAKNTVYLEMNSLIPEDTAVYYCSKVISYLVVLPRTERYEGDYWGQGTQVSVSS
low polyreactivity

And then HVQLVESGGGLVQAGGSLRLSCAASGLTFAQYAMGWYRQAPGNERALVAAITGSGGSTYYADSVKGRFTISRDNAKNTVYLQLNSLKPEDTAVYYCNKLFYRWRIVDKYYYWGQGTQVTVSS , what is it?
high polyreactivity

And then QVPLVESGGGLVQAGGSLRLSCAASGSIFNIYALGWYRPAPGKVWELVAGISWDSGSTFYADSVKGRVTISRDNAKNTVYLQMNSLKPEDTAGYYCNVVYETYCDEFDYWGQGTQVTVSS , what is it?
high polyreactivity

And then QVQLVESGGGLVQAGGSLRLSCAASGSIFISYAMGWYRQAPGKERELVAAITSGGRTNYADSVKGRFTISRDNAKNTVYLQMNSLKPEDTAVYYCAKRQSHSRKYDYWGQGTQVTVSS , what is it?
low polyreactivity

And then QVQLVESGGGLVQAGGSLRLSCAASGSIFRSYAIGWYRQAPGKERELVASISRRGGSTYYADSVKGRFTISRDNAKNTVYLQMKSLKPEDTAVYYCAAVRYNSRVSTTPSEMYYWGQGTQVTVSS , what is it?
low polyreactivity

And then QVQLVESGGGLVQSGGSLRLSCAASGSTLIGNAMGWYRQAPGKERELVAAISSGGRTYYADSVKGRFTISRDNAKNTVYLQMNSLKPEDTAVYYCAADTVGTNVVSPELDYWGQGTQVTVSS , what is it?
low polyreactivity

###

protocol: yeast display, Sf9 membrane polyspecificity reagent, FACS + sequencing; frameworks hold sequencing errors
outcomeMeasure: polyreactivity (PSR sort gate)

QVQLVESGGGLVQAGGSLRLTCAASGSTLYWKAMGWYRQAPGKERELVASITSSGGSTYYADSVKGRFTISRDNAKNTVYLQMNSLKPEDTAVYDCATESWWRYSEYYYWGQGSQVTVSS : low polyreactivity
QVQLVESGGGLVHAGGSLRLSCAASGLIFTNAMGWYRQAPGKEREFVAAINSSGGSTYADSVKGRFTISRDNAKNTVYLQMNSLKPEDTAVYFCAARVIYLYEYWGQGTQVTVSS : low polyreactivity
QVQLVESGGGLVQAGGSLRLSCAASGSTFLYYAMGWYRPAPGKESELVAGISASGGSTYYADSVKGRFTISRDNAKITVYLQMNSLKPEDTAVYYCARYAGFPYTQCDYWGQGTQVTVSS : high polyreactivity
QVQLLESGGGLVEAGGSLRLSCSASGSTYNAMGWYRQATGKEREFVAYITTGGGGTYYADSVKGRFTISRDNAKNTVYLQMNSLKPEETADYYCAAEDYRTRTYVYRYRYYFWGQGTQVTVAS : high polyreactivity
QVQLVESGGGLVQAGGSLRLSCAASGRTFFEYAMGWYRQAPGKERELVAIITNGATTNYADSVKGRFTISRDNAKNTVYLQMNSLKPEDTAVYYCAVAKWQPRRRKYYYWGQGTQVTVSS : high polyreactivity

Next item in the queue.
So what's the measured polyreactivity (PSR sort gate) for this one? QVQRVESGGGLVQAGGSLRLSCAASGSTFGNAMGWYRQAPGKERELVAAISSRGDRTYYADSVQGRFTISRDNAKNTVYLQMNSLKPEDTAVYYCAKDGYPNKYDYWGQGTQVTVSS
high polyreactivity
